system: PC-12; test: Cytoprotective activity against H2O2-induced cell death in […] assessed as cell viability at 30 to 100 uM incubated for 0.5 hrs followed by H2O2 stimulation and measured after 2 hrs by MTT assay; assay type: functional, cell-based; details: Rattus norvegicus, dose 30-100 µM, time 2.5 hrs
Active and inactive are the calls of the source. The rule behind the calls is not given here.

chemical-string: Oc1ccc(/C=C/c2cc(O)cc(O)c2)cc1
Activity: Active
//
chemical-string: COc1cc(/C=C/C(=O)/C=C(O)/C=C/c2cc(CC=C(C)C)c(O)c(OC)c2)cc(CC=C(C)C)c1O
Activity: Active
//
chemical-string: C=CCc1cc(/C=C/C(O)=C/C(=O)/C=C/c2cc(CC=C(C)C)c(O)c(OC)c2)cc(OC)c1O
Activity: Active
